STUDY_SYSTEM: Tyrosine-protein kinase ABL1 (Homo sapiens, UniProt P00519)
Sequence (P00519 whole entry): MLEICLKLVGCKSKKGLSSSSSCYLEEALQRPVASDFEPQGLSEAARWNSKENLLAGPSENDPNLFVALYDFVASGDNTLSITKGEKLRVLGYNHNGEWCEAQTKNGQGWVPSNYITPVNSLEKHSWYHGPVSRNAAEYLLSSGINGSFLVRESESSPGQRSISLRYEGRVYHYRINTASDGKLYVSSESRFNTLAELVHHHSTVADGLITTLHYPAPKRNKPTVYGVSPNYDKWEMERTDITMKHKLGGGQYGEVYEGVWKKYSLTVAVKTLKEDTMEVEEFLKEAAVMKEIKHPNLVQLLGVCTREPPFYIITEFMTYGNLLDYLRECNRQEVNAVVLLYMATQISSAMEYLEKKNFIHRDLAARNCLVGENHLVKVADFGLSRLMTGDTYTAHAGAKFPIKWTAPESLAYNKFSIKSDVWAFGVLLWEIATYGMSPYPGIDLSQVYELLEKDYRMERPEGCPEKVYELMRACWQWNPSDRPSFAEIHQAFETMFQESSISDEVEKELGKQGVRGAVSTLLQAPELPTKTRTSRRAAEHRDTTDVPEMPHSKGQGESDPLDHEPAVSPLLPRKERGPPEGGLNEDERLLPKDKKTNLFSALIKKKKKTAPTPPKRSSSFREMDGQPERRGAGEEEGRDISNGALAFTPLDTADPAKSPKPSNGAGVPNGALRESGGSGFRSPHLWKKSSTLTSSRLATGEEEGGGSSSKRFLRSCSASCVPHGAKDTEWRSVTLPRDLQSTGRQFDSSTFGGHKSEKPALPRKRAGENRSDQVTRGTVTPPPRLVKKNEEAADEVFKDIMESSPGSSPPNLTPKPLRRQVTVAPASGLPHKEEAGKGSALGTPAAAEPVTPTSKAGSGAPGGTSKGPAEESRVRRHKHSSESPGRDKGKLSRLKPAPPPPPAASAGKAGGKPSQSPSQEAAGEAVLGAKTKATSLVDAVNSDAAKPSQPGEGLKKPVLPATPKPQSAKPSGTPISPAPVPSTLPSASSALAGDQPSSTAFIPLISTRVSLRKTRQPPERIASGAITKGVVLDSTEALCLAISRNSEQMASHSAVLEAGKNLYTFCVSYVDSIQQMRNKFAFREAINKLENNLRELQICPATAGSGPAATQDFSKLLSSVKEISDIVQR
ASSAY: Inhibition of ABL (unknown origin) ACT labeling site by KiNativ Profiling analysis
MEASURED_METRIC: IC50 (nM)
Write down the numeric answer in nM and omit the unit.

INSERT INTO assay_data (molecule_smiles, reported_value) VALUES
  ('CCN1CCN(Cc2ccc(NC(=O)c3ccc(C)c(/C=C/c4cnc5[nH]ccc5c4OC)c3)cc2C(F)(F)F)CC1', 51.5);

q: Fill in reported IC50 for this entry: CCN1CCN(Cc2ccc(NC(=O)c3ccc(C)c(Oc4ccnc5[nH]ccc45)c3)cc2C(F)(F)F)CC1
a: 75.2

###

The following molecules are listed with their measured pIC50 values.
STUDY_SYSTEM: Mitogen-activated protein kinase kinase kinase kinase 2 (Homo sapiens, UniProt Q12851)
Sequence (Q12851 whole entry): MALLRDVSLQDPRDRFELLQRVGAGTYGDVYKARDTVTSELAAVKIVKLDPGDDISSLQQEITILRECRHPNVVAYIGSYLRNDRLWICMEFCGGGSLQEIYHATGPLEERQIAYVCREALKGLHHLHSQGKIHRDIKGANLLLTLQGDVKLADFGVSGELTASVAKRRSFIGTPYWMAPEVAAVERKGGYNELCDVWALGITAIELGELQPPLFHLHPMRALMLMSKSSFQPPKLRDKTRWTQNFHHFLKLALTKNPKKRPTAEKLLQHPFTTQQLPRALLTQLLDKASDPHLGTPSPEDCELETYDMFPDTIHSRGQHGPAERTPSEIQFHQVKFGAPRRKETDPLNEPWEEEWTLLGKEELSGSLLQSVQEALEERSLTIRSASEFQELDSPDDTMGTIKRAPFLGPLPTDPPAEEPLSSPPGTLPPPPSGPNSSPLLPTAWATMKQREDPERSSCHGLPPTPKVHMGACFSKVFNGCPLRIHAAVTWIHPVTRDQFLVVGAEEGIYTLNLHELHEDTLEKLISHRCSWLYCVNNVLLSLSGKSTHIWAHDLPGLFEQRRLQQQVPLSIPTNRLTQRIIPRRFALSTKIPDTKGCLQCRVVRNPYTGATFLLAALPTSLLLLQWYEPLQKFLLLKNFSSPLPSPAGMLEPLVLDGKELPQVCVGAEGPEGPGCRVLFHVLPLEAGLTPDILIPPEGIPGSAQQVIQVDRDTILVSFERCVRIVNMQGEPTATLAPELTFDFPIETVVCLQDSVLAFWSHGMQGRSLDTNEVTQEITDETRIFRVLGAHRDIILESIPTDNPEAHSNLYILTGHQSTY
ASSAY: Inhibition of MAP4K2 (unknown origin) Lys1 labeling site by KiNativ Profiling analysis
# reply with the number alone; pIC50 is -log10 of concentration in mol/L

INSERT INTO assay_data (molecule_smiles, study_system, reported_value) VALUES
  ('CCN1CCN(Cc2ccc(NC(=O)c3ccc(C)c(Oc4ccnc(NC)n4)c3)cc2C(F)(F)F)CC1', 'Mitogen-activated protein kinase kinase kinase kinase 2 (Homo sapiens, UniProt Q12851)', 7.58),
  ('CCN1CCN(Cc2ccc(NC(=O)c3ccc(C)c(/C=C/c4cnc5[nH]ccc5c4OC)c3)cc2C(F)(F)F)CC1', 'Mitogen-activated protein kinase kinase kinase kinase 2 (Homo sapiens, UniProt Q12851)', 7.01);

q: Fill in reported pIC50 for this entry: CCN1CCN(Cc2ccc(NC(=O)c3ccc(C)c(Oc4ncnc5[nH]c(C)cc45)c3)cc2C(F)(F)F)CC1
a: 7.74

q: Fill in reported pIC50 for this entry: Cc1cn(-c2cc(NC(=O)c3ccc(C)c(Oc4ccnc5[nH]ccc45)c3)cc(C(F)(F)F)c2)cn1
a: 7.52

q: Fill in reported pIC50 for this entry: CCN1CCN(Cc2ccc(NC(=O)c3ccc(C)c(OCc4cnc5[nH]ccc5c4OC)c3)cc2C(F)(F)F)CC1
a: 7.31

q: Fill in reported pIC50 for this entry: CNc1cc(Oc2cc(C(=O)Nc3cc(N4CCN(C)CC4)cc(C(F)(F)F)c3)ccc2C)ncn1
a: 7.43

###

STUDY_SYSTEM: Tyrosine-protein kinase Fes/Fps (Homo sapiens)
Sequence (P07332 whole entry): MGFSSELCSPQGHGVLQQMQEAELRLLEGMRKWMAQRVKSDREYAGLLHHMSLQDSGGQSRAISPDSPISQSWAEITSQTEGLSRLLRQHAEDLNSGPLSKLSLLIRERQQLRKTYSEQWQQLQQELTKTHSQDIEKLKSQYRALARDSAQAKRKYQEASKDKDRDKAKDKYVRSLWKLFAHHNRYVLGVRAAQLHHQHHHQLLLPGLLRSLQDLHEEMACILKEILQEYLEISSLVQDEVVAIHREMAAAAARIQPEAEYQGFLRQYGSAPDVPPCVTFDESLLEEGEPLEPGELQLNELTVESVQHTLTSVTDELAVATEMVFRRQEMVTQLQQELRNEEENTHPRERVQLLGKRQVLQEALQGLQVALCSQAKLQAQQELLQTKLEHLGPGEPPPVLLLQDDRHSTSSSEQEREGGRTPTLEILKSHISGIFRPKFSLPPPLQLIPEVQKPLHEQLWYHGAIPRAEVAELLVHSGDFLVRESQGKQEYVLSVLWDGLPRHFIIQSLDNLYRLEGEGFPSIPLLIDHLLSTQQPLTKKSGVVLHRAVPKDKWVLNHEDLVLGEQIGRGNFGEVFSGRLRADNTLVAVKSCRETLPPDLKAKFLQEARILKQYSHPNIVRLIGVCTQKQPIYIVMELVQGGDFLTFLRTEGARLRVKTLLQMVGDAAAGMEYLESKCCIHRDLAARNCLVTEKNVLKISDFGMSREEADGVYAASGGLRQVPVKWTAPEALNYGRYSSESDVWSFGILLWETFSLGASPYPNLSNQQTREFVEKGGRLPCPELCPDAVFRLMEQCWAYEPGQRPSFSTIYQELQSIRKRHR
ASSAY: Inhibition of FES Lys1 labeling site in human Huh-7 cell lysate at 1 uM by KiNativ Profiling analysis relative to control
Assay type: subcellular
So basically: inhibition at 80% or higher? That is met. Lower than 80%? That is not met.

# count of solved cases: 3
INSERT INTO results (molecule_smiles, class_label) VALUES
  ('CNc1cc(Oc2cc(C(=O)Nc3cc(-n4cnc(C)c4)cc(C(F)(F)F)c3)ccc2C)ncn1', 'not met'),
  ('CCN1CCN(Cc2ccc(NC(=O)c3ccc(C)c(Oc4ncnc5[nH]c(C)cc45)c3)cc2C(F)(F)F)CC1', 'met'),
  ('CNc1cc(Oc2cc(C(=O)Nc3cc(N4CCN(C)CC4)cc(C(F)(F)F)c3)ccc2C)ncn1', 'not met');

Next:
q: Please indicate if the recorded inhibition for CCN1CCN(Cc2ccc(NC(=O)c3ccc(C)c(Oc4ncnc5cc(OC)c(OC)cc45)c3)cc2C(F)(F)F)CC1 meets or exceeds 80%.
a: met
